MEASUREMENT TARGET: T1, Rhesus macaque CD4-HIS (Acro Biosystems, Cat. CD4-C52H7) (rhesus macaque, UniProt P16003 26-390)
T1 construct: Bought reagent; also called Rhesus CD4; rhesus CD4-HIS; not shown: His tag
T1 sequence (P16003 26-390 limits assumed): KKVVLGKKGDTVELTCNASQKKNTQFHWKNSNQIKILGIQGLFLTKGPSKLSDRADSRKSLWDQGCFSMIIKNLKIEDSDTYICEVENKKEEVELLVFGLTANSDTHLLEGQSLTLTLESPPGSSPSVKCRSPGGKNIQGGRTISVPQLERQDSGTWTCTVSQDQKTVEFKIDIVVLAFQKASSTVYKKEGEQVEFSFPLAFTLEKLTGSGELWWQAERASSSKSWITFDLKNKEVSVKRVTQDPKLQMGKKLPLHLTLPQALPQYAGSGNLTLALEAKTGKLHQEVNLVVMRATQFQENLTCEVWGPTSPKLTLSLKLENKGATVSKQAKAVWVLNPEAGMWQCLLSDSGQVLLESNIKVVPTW
METHOD DESCRIPTION: BLI Octet, mAb on anti-mouse Fc sensor, rhesus CD4-HIS 25-100 nM, 1:1 global fit;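 further: purified antibodies captured at 10 µg/mL, rhesus CD4 analyte run as a three-concentration serial dilution, irrelevant antibody as reference control, one kinetic constant set per antibody from global fitting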
REPORTED ENDPOINT: koff (s⁻¹)
Express your answer in s⁻¹, writing the number without its unit.

75110_03D16A (antibody, V domains shown, Tested as antibody purified from AlivaMab Mouse hybridoma supernatant (captured by anti-mouse IgG Fc)) VH: EVQLVESGGGLVQPGGSLRLSCAASGFTFSSYWMSWVRQAPGKGLEWVANINQDGGEKYYVDSVKGRFTISRDNAKNSLYLQMNSLRAEDTAVYYCVREGGQWLALDYWGQGTLVTVSS VL: DIQMTQSPSSVSASVGDRVTITCRASQGISSWLTWYQQKPGKAPKFLIYAASSLQSGVPSRFSGSGFGTDFTLTISSLQPEDFATYYCQQANSFPWTFGQGTKVEIK    0.002

Continue with the next binder.
In: Param item = 75110_04G16A (antibody, V domains shown, Tested as antibody purified from AlivaMab Mouse hybridoma supernatant (captured by anti-mouse IgG Fc)) VH: QVQLQESGPGLVKPSQTLSLTCTVSGDSISSGYYYWSWIRQHPGKGLEWIGYISYSGSTYYNPSLKSRLTISVNTSKNQFSLKLSSLTAADTAVYYCARDRPSNFDAFDIWGQGTMVTVSS VL: EIVLTQSPGTLSLSPGERATLSCRASQSVGSTYLAWYQQKPGQAPRLLIYGAFSRATGIPDRFSGSGSGTDFTLTISRLEPEDFAVYYCQQYGSSPLTFGPGTKVDIK ; retrieve measured koff.
Out: 0.00022
